Hello, the source for this data is ChEMBL document CHEMBL1201862, in case you need it.

test system: NCI-H226; assay: NCI tumour cell line growth inhibition, 48 h
Active and inactive are the calls of the source. Rule as the data show it: active = GI50 up to about 1.1 µM and inactive = higher.
Outcome (select one): active, inactive

Data request: Query: recorded result category for C(=C\c1cccc(/C=C/c2ccccn2)n1)/c1ccccn1 in this test
Data returned: inactive

Data request: Thanks! And COc1ccc(C[C@H]2NC(=O)/C=C/C[C@@H]([C@H](C)[C@H]3O[C@@H]3c3ccccc3)OC(=O)[C@H](CC(C)C)OC(=O)[C@H](C)CNC2=O)cc1 ?
Data returned: active

Data request: Thanks! And CN(CCC(=O)N1CC(CCl)c2ccc([N+](=O)[O-])cc21)CCC(=O)N1CC(CCl)c2ccc([N+](=O)[O-])cc21 (configuration not stated) ?
Data returned: inactive

Data request: Thanks! And COC1=CC(C)C2C[C@H]3O[C@H](O)C[C@H]4C(C)C(=O)C(O)C([C@@]2(C)C1=O)[C@@]34C (some centres not stated) ?
Data returned: inactive

Data request: Thanks! And Cc1ccc(NC(=O)c2cccc([N+](=O)[O-])c2O)c([N+](=O)[O-])c1 ?
Data returned: inactive

Data request: Thanks! And N#CCc1nc2c(s1)C(=O)c1ccccc1C2=O ?
Data returned: inactive

Data request: Thanks! And O=C1/C(=C/c2ccc(Cl)cc2)NC(=S)N1CN1CCCCC1 ?
Data returned: inactive

Data request: Thanks! And c1ccc(/N=C(\N2CCOCC2)N(CCN2CCOCC2)c2ccccc2)cc1 ?
Data returned: inactive

Data request: Thanks! And COc1cc2c3c(c1O)C1(C=CC(=O)C=C1)CC3N(C)CC2 (configuration not stated) ?
Data returned: inactive

Data request: Thanks! And COc1ccc(C2SC(=N)Nc3c2c(C)nn3C(=O)c2ccncc2)cc1 (configuration not stated) ?
Data returned: inactive

Data request: Thanks! And CCCCC(C(=O)CCC(=O)Nc1ccc(Cl)cc1)C(=O)C(C)C (configuration not stated) ?
Data returned: inactive

Data request: Thanks! And CC(=O)OCC12C(OC(C)=O)C[C@@H](C)C3(CC(c4ccoc4)OC3=O)C1CCC(OC(C)=O)C21CO1 (some centres not stated) ?
Data returned: inactive

Data request: Thanks! And COc1ccc2c(c1)-c1c(c3ccccc3n1CCN1CCCCC1)CC2 ?
Data returned: inactive

Data request: Thanks! And COc1cc([C@@H]2c3cc4c(cc3[C@@H](NC(=O)c3cccc(F)c3)C3COC(=O)[C@@H]32)OCO4)cc(OC)c1O (some centres not stated) ?
Data returned: active

Data request: Thanks! And NC(=S)NNc1c([N+](=O)[O-])cnn(-c2ccccc2)c1=O ?
Data returned: inactive

Data request: Thanks! And CCCN(CCCCN1C(=O)c2ccccc2C1=O)CC1COc2ccccc2O1 (configuration not stated) ?
Data returned: inactive

Data request: Thanks! And COc1ccc([I+]c2ccc(OC)cc2)cc1 ?
Data returned: inactive
